target: EGFR T790M L858R (Homo sapiens, UniProt P00533, L858R/T790M)
Sequence (P00533 25-1210 T790M/L858R): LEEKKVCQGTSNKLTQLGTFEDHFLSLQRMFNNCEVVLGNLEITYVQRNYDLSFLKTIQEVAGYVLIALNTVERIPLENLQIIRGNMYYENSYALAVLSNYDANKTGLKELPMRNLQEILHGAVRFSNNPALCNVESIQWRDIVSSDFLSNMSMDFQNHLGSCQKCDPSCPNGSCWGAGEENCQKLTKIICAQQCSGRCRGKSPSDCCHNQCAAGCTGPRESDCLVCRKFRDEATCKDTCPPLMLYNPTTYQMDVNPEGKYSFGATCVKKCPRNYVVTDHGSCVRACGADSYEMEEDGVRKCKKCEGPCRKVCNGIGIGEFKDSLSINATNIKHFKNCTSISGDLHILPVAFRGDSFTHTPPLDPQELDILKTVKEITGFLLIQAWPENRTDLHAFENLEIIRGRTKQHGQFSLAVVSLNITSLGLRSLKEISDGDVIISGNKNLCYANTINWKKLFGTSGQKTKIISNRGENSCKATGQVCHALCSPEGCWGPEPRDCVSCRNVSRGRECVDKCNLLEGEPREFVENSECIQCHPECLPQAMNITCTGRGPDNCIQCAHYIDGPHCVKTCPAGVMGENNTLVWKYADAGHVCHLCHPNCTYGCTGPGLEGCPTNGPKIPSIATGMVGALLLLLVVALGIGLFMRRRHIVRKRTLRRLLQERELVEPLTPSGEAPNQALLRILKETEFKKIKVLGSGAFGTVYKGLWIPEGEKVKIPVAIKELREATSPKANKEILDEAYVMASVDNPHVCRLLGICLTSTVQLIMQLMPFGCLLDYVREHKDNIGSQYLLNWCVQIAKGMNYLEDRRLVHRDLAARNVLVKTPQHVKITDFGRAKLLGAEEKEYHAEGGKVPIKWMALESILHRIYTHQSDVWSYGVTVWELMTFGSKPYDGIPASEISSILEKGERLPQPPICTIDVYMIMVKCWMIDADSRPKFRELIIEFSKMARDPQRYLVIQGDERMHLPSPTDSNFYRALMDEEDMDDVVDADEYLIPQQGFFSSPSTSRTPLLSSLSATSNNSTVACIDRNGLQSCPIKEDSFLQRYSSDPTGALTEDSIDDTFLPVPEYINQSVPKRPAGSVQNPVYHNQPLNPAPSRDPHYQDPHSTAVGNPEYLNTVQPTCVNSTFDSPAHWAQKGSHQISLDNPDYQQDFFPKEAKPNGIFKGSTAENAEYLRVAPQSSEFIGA
assay.comment: EGFR T790M L858R biochemical assay (Caliper mobility shift)
test.conditions: 5 μM ATP; apparent Ki (Morrison fit) converted by Cheng-Prusoff, Km of ATP 1.3 μM
measured.property: Ki (nM)

Some entries whose results are on file:
INSERT INTO results (molecule, endpoint_unit, data_value) VALUES
  ('CC[C@H](C)n1nc(N2CC(C(C)(C)O)C2)c2cnc(Nc3ccnc(N4CC[C@@H](O)[C@@H](F)C4)n3)cc21 (relative stereo) [Example 194]', 'nM', 1.5),
  ('CC(C)n1nc(N2CC(O)C2)c2cnc(Nc3ccnc(-c4cnn(S(=O)(=O)C5CC5)c4)n3)cc21 [Example 37]', 'nM', 1.4),
  ('CC(C)n1nc(NC(=O)C(C)(C)O)c2cnc(Nc3ccnc(-c4cnn(S(=O)(=O)C5CC5)c4)n3)cc21 [Example 116]', 'nM', 2.6),
  ('CCS(=O)(=O)n1cc(-c2nccc(Nc3cc4c(cn3)c(NC3COC3)nn4C(C)C)n2)cn1 [Example 16]', 'nM', 1.1);

a = CC(C)n1nc(N2CCOC2=O)c2cnc(Nc3ccnc(-c4cnn(S(=O)(=O)C5CC5)c4)n3)cc21 [Example 72]
b = CC(C)n1nc(N2CC(O)C(F)(F)C2)c2cnc(Nc3ccnc(N4CCC(C)(O)CC4)n3)cc21 (stereo not shown) [Example 85]
Lower value for measured Ki? Options: a , b Identify your pick by its label.
a
(a: 0.7 nM, b: 5.5 nM)

====

target: EGFR del746-750 T790M (Homo sapiens, UniProt P00533, DEL746-750/T790M)
assay.comment: EGFR del746-750 T790M biochemical assay (Caliper mobility shift)
test.conditions: 5 μM ATP; apparent Ki (Morrison fit) converted by Cheng-Prusoff, Km of ATP 2.1 μM; read-out: EGFR(T790M/d746-750) Ki
pKi: −log10 of the molar value.
measured.property: pKi

INSERT INTO measurements (compound, data_value) VALUES
  ('CCC(C)n1nc(N2CC(O)(CO)C2)c2cnc(Nc3ccnc(N4CCC(C)(O)CC4)n3)cc21 (racemic) [Example 80]', 8.03),
  ('CC(C)n1nc(N2CC(F)(F)C2)c2cnc(Nc3ccnc(N4CC[C@H](O)[C@H](F)C4)n3)cc21 (racemic) [Example 174]', 8.42),
  ('CC(C)n1nc(N2CCOC2=O)c2cnc(Nc3ccnc(-c4cnn(S(=O)(=O)C5CC5)c4)n3)cc21 [Example 72]', 9.30),
  ('CCC(C)n1nc(N2CC(F)(F)C2)c2cnc(Nc3ccnc(N4CCC(C)(O)CC4)n3)cc21 (stereo not shown) [Example 146]', 8.31),
  ('CC(C)n1nc(N2CC(CO)C2)c2cnc(Nc3ccnc(-c4cnn(S(=O)(=O)C5CC5)c4)n3)cc21 [Example 63]', 9.30),
  ('CC(C)n1nc(NC2COC2)c2cnc(Nc3ccnc(-c4cnn(S(=O)(=O)C5CC5)c4)n3)cc21 [Example 35]', 9.30);

1 = CC[C@H](C)n1nc(N2CC3(COC3)C2)c2cnc(Nc3ccnc(N4CC[C@@](C)(O)[C@@H](F)C4)n3)cc21 (single isomer, unassigned) [Example 66]
2 = CCNC(=O)C1CN(c2nn(C(C)C)c3cc(Nc4ccnc(-c5cnn(S(=O)(=O)C6CC6)c5)n4)ncc23)C1 [Example 162]
Lower value for measured pKi? Options: 1 , 2 Identify your pick by its label.
1
(1: 8.34, 2: 9.10)

I = COC1CCN(c2nccc(Nc3cc4c(cn3)c(N3CCCC3)nn4C(C)C)n2)CC1 [Example 15]
II = CC(C)n1nc(N2CC[C@@H](O)C2)c2cnc(Nc3ccnc(-c4cnn(S(=O)(=O)C5CC5)c4)n3)cc21 [Example 114]
Lower value for measured pKi? Options: I , II Identify your pick by its label.
I

====

target: phosphor-EGFR in H1975(L585R/T790M) mutant EGFR expressing cells (Homo sapiens, UniProt P00533, L858R/T790M)
Sequence (P00533 25-1210 T790M/L858R): as above
assay.comment: H1975 pEGFR MSD cellular assay
test.conditions: NCI-H1975 cells, serum starved, 1 hour compound incubation, pEGFR Tyr1068 MSD; read-out: HI975 pEGFR EC50
measured.property: EC50 (nM)

Some entries whose results are on file:
INSERT INTO measurements (molecule, measured_property, endpoint_unit, data_value) VALUES
  ('CC[C@H](C)n1nc(N2CC3(COC3)C2)c2cnc(Nc3ccnc(OCC(C)(C)S(C)(=O)=O)n3)cc21 [Example 71]', 'EC50', 'nM', 256),
  ('CCNC(=O)C1CN(c2nn(C(C)C)c3cc(Nc4ccnc(-c5cnn(S(=O)(=O)C6CC6)c5)n4)ncc23)C1 [Example 162]', 'EC50', 'nM', 56.6),
  ('CC(C)n1nc(NCC(F)(F)F)c2cnc(Nc3ccnc(-c4cnn(S(=O)(=O)C5CC5)c4)n3)cc21 [Example 181]', 'EC50', 'nM', 3260),
  ('CC(C)n1nc(N2CCCNC2=O)c2cnc(Nc3ccnc(-c4cnn(S(=O)(=O)C5CC5)c4)n3)cc21 [Example 150]', 'EC50', 'nM', 244);

I = CC(C)n1nc(N)c2cnc(Nc3ccnc(-c4cnn(S(=O)(=O)C5CC5)c4)n3)cc21 [Example 45]
II = CC(C)n1nc(N2CC(C(=O)N3CC[C@@H](CO)C3)C2)c2cnc(Nc3ccnc(-c4cnn(S(=O)(=O)C5CC5)c4)n3)cc21 [Example 167]
III = CC(C)n1nc(N2CCN=C2O)c2cnc(Nc3ccnc(-c4cnn(S(=O)(=O)C5CC5)c4)n3)cc21 [Example 43]
Please put the entries in order of rising EC50. To answer, write out the labels according to the requested order.
III, I, II

====

target: phosphor-EGFR in H1975(L585R/T790M) mutant EGFR expressing cells (Homo sapiens, UniProt P00533, L858R/T790M)
assay.comment: H1975 pEGFR MSD cellular assay
test.conditions: NCI-H1975 cells, serum starved, 1 hour compound incubation, pEGFR Tyr1068 MSD; read-out: HI975 pEGFR EC50
Procedure: H1975 pEGFR MSD Cellular Assays These assays are intended for determining cellular. […] (Meso Scale Discovery Catalog# N31CB-1). […] The following day, test compounds are serially diluted in dimethyl sulfoxide (DMSO) and added to cells in serum free medium (final DMSO concentration 0.5%). […] The MSD Read Buffer is added such that when a voltage is applied to the plate electrodes, the labels bound to the electrode surface emit light. […]
measured.property: EC50 (nM)

Some entries whose results are on file:
INSERT INTO results (compound, measured_property, data_value) VALUES
  ('CC(C)n1nc(N2CC(O)C(F)C2)c2cnc(Nc3ccnc(-c4cnn(S(=O)(=O)C5CC5)c4)n3)cc21 (stereo not drawn) [Example 42]', 'EC50', 12.5),
  ('CC(C)n1nc(N(C)CC(O)CO)c2cnc(Nc3ccnc(-c4cnn(S(=O)(=O)C5CC5)c4)n3)cc21 (stereo not drawn) [Example 49]', 'EC50', 98),
  ('CCC(C)n1nc(N2CCNC2=O)c2cnc(Nc3ccnc(OCC(C)(C)S(C)(=O)=O)n3)cc21 (racemic) [Example 99]', 'EC50', 617),
  ('CC(C)n1nc(N2CCNC(=O)C2)c2cnc(Nc3ccnc(-c4cnn(S(=O)(=O)C5CC5)c4)n3)cc21 [Example 59]', 'EC50', 92.1),
  ('CC(C)n1nc(NC2CCOCC2)c2cnc(Nc3ccnc(-c4cnn(S(=O)(=O)C5CC5)c4)n3)cc21 [Example 52]', 'EC50', 90.1);

a = CC(C)n1nc(N2CC(C)(C)NC2=O)c2cnc(Nc3ccnc(N4CCC(O)C(F)C4)n3)cc21 (racemic) [Example 88]
b = CCC(C)n1nc(N2CCCC2=O)c2cnc(Nc3ccnc(N4CC[C@@H](O)[C@@H](F)C4)n3)cc21 (stereo partly drawn) [Example 200]
c = CCC(C)n1nc(N2CC3(COC3)C2)c2cnc(Nc3ccnc(N4C[C@@H](F)[C@@H](O)C(C)(C)C4)n3)cc21 (mixture of isomers) [Example 147]
// ranking: key=EC50, reverse=True To answer, write out the labels according to the requested order.
a, b, c
(a: 187 nM, b: 75.4 nM, c: 15.8 nM)

====

target: phosphor-EGFR in H1975(L585R/T790M) mutant EGFR expressing cells (Homo sapiens, UniProt P00533, L858R/T790M)
assay.comment: H1975 pEGFR MSD cellular assay
test.conditions: NCI-H1975 cells, serum starved, 1 hour compound incubation, pEGFR Tyr1068 MSD; read-out: HI975 pEGFR EC50
measured.property: EC50 (nM)

INSERT INTO measurements (compound, data_value) VALUES
  ('CC(C)n1nc(N2CCCC2=O)c2cnc(Nc3ccnc(-c4cnn(S(=O)(=O)C5CC5)c4)n3)cc21', 57.8),
  ('CC(C)n1nc(N2CCOC2=O)c2cnc(Nc3ccnc(-c4cnn(S(=O)(=O)C5CC5)c4)n3)cc21', 28.1),
  ('CC(C)n1nc(N2CC(O)CC2=O)c2cnc(Nc3ccnc(N4CC[C@H](O)[C@H](F)C4)n3)cc21 (mixture of isomers)', 1410),
  ('CC(C)n1nc(N2CC(C#N)C2)c2cnc(Nc3ccnc(-c4cnn(S(=O)(=O)C5CC5)c4)n3)cc21', 28.9);

1 = CCC(C)n1nc(N2CC(O)(CO)C2)c2cnc(Nc3ccnc(N4CCC(C)(O)CC4)n3)cc21 (racemic)
2 = CC(n1nc(N2CC[C@@H](O)C2)c2cnc(Nc3ccnc(N4CCC(C)(O)CC4)n3)cc21)C(F)(F)F (stereo partly drawn)
3 = CC(C)n1nc(N2CC(C(=O)N(C)C)C2)c2cnc(Nc3ccnc(N4CCC(O)C(C)(C)C4)n3)cc21 (stereo not drawn)
4 = CC(C)n1nc(N2CC(N3CCOCC3)C2)c2cnc(Nc3ccnc(-c4cnn(S(=O)(=O)C5CC5)c4)n3)cc21
5 = CCC(C)n1nc(N2C[C@@H](CO)NC2=O)c2cnc(Nc3ccnc(-c4cnn(S(=O)(=O)C5CC5)c4)n3)cc21 (stereo partly drawn)
Please put the entries in order of rising EC50. To answer, write out the labels according to the requested order.
3, 4, 2, 5, 1
